- System: MRSA-2
- Assay Info: MIC, broth microdilution (CLSI)
- Assay Setup: 16 to 18 hours at 37° C.
Marks after values point to notes of the source that are not given here.
Property: MRSA-2 MIC; scope: individual molecules

Known MRSA-2 MIC results, listed for orientation:
Molecule: CCN(CC)c1ccc2nc3c(O)c(Br)cc(Br)c3nc2c1Br [Compound 64A]
Target: MRSA-2
Result Value: 0.3^a μM
//
Molecule: Oc1c(Br)cc(Br)c2nc3c(O)c(Br)cc(Br)c3nc12
Target: MRSA-2
Result Value: >50 µM
//
Molecule: Oc1c(Br)cc(Br)c2nc3cc(Cl)ccc3nc12 [Compound 61A]
Target: MRSA-2
Result Value: 0.1^b μM
//
Molecule: CC(C)(C)c1ccc2nc3c(O)c(Br)cc(Br)c3nc2c1 [Compound 55A]
Target: MRSA-2
Result Value: 0.1^b μM

Asked: Recorded MRSA-2 MIC of CCc1ccc2nc3c(O)c(Br)cc(Br)c3nc2c1 [Compound 53A] , please.
Given back: 0.59^a μM

Asked: Recorded MRSA-2 MIC of Oc1c(Br)cc(Br)c2nc3cc(Oc4ccccc4)ccc3nc12 [Compound 63A] , please.
Given back: 0.39 µM
